# System: Balb/c splenic B cells
# ASSAY OVERVIEW: B cell activation and proliferation assay (Alamar Blue)
# Format: cell-based
# EXPERIMENTAL SETUP: Mus musculus, read-out: B cell proliferation EC50
Provide the reported EC50 of each item.

Here's what some known entries look like.
Cc1ccccc1-n1c(Cn2nc(-c3ccc(O)c(F)c3)c3c(N)ncnc32)cc2cccc(C)c2c1=O	< 1000 nM
Cc1ccccc1-n1c(Cn2nc(I)c3c(N)ncnc32)nc2scc(C)c2c1=O	< 100 nM
Cc1ccccc1-n1c(Cn2nc(Br)c3c(N)ncnc32)cc2cccc(C)c2c1=O	< 1000 nM

Turning to the following compound.
Considering Cc1ccccc1-n1c(Cn2nc(-c3ccc(Cl)cc3)c3c(N)ncnc32)cc2cccc(C)c2c1=O , its EC50 with Balb/c splenic B cells was recorded as < 10000 nM

====

# Tested on: Balb/c splenic B cells
# ASSAY OVERVIEW: B cell activation and proliferation assay (Alamar Blue)
# Format: cell-based
# EXPERIMENTAL SETUP: Mus musculus, read-out: B cell proliferation EC50
pEC50: −log10 of the molar value.
Can you tell me pEC50 for the items I'm about to list?

Example results:
CCc1ccccc1-n1c(Cn2nc(-c3cc(O)cc(F)c3)c3c(N)ncnc32)nc2scc(C)c2c1=O	> 7.00
CC(=O)Nc1nc2ccc(-c3nn(Cc4cc5cccc(C)c5c(=O)n4-c4ccccc4)c4ncnc(N)c34)cc2s1	> 7.00
Cc1cccnc1-n1c(Cn2nc(Br)c3c(N)ncnc32)cc2cccc(C)c2c1=O	> 7.00

Hello, I would appreciate it if you could give pEC50 for each entry below.
1. COc1ccc(-c2nn(Cc3cc4cccc(C)c4c(=O)n3-c3ccccc3C)c3ncnc(N)c23)cc1
2. CC(=O)Nc1nc2ccc(-c3nn(Cc4cc5cccc(C)c5c(=O)n4C)c4ncnc(N)c34)cc2s1
3. Cc1ccccc1N1C(=O)C2C(C=NN2C)N=C1Cn1nc(-c2cc(O)cc(F)c2)c2c(N)ncnc21 (stereo not drawn)
4. COc1ccccc1-n1c(Cn2nc(C#C[C@@H](C)O)c3c(N)ncnc32)cc2cccc(C)c2c1=O
5. Cc1cccc2cc(Cn3nc(-c4cccc(O)c4)c4c(N)ncnc43)n(-c3ccccc3O)c(=O)c12
6. Cc1cccc2cc(Cn3nc(I)c4c(N)ncnc43)n(C3CCCCC3)c(=O)c12

Result string:
> 6.00
> 7.00
> 6.00
> 6.00
> 7.00
> 5.00

====

# EXPERIMENTAL TARGET: PI3K δ (Homo sapiens, UniProt O00329)
# Construct: purchased Upstate
# Sequence (O00329 whole entry): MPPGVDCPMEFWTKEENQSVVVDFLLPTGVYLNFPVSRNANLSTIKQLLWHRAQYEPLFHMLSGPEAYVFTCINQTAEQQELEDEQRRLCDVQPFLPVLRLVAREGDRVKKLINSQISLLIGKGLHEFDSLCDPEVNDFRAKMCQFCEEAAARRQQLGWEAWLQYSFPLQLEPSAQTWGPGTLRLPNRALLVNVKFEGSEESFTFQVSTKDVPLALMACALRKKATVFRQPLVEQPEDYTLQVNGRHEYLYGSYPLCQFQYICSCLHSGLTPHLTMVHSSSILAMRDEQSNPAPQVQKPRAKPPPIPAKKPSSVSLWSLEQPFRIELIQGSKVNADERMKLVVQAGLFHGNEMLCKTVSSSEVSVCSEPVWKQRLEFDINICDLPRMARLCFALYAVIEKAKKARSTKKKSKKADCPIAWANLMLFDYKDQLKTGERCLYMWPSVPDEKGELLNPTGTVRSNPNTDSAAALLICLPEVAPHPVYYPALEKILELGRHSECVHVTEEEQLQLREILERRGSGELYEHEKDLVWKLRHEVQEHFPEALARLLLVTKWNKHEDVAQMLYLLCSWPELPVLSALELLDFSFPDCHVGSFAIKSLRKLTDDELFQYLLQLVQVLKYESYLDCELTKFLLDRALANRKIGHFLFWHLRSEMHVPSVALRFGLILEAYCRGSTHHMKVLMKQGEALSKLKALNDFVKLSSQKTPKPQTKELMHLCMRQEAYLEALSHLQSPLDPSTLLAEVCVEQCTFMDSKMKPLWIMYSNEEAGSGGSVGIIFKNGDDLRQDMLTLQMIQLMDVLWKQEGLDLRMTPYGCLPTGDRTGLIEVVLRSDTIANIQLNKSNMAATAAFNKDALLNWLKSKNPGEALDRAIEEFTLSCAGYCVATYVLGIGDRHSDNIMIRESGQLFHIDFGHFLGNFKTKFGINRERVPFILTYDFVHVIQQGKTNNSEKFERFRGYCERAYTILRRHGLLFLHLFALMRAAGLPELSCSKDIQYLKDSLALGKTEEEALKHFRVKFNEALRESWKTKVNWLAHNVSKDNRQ
# Sequence (P27986 whole entry partner): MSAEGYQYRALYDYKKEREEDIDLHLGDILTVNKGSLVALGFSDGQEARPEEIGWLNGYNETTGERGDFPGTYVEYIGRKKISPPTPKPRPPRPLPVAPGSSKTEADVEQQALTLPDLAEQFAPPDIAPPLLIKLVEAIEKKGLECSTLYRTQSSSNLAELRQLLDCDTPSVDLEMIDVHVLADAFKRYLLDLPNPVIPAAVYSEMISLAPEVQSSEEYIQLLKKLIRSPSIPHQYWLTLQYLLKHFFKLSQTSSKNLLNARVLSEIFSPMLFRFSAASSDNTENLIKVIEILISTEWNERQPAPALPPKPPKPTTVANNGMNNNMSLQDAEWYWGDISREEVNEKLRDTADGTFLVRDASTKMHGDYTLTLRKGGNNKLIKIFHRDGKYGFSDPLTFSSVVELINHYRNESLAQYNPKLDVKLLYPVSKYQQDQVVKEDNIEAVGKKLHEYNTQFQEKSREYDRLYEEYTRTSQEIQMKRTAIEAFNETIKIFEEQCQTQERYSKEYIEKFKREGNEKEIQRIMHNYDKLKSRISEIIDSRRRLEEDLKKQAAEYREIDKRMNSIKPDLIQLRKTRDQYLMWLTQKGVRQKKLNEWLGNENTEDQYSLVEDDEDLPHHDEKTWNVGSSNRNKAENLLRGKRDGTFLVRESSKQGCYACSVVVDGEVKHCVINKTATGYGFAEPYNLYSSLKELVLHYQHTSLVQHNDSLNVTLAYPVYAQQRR
# ASSAY OVERVIEW: PI3K δ in vitro kinase inhibition assay
# Assay type: biochemical
Please go through the items and note down their IC50.

CCc1ccccc1-n1c(Cn2nc(-c3cccc(O)c3)c3c(N)ncnc32)nc2scc(C)c2c1=O [Compound 290]	< 0.1 µM
Cc1ccccc1-n1c(Cn2nc(C)c3c(N)ncnc32)nc2scc(C)c2c1=O [Compound 246]	< 0.1 µM
Cc1cccnc1-n1c(Cn2nc(I)c3c(N)ncnc32)cc2cccc(C)c2c1=O [Compound 92]	< 10 µM

// next item, IC50 requested
The reported IC50 value, PI3K δ (Homo sapiens, UniProt O00329), for Cc1nn(Cc2nc3nccc(C)c3c(=O)n2-c2ccccc2F)c2ncnc(N)c12 [Compound 210] reads < 10 µM

====

# System: Balb/c splenic B cells
# ASSAY OVERVIEW: B cell activation and proliferation assay (Alamar Blue)
# Type: cell-based
# EXPERIMENTAL SETUP: Mus musculus, read-out: B cell proliferation EC50
pEC50: −log10 of the molar value.
MEASURED METRIC: pEC50

In the examples that follow, each entry is paired with its recorded pEC50.
Cc1cccc2cc(Cn3nc(-c4cccc(O)c4)c4c(N)ncnc43)n(C3CCCCC3)c(=O)c12 [Compound 111]	> 6.00
Cc1cccc2cc(Cn3nc(-c4cc(O)cc(F)c4)c4c(N)ncnc43)n(C3CCCCC3)c(=O)c12 [Compound 110]	> 6.00
Cc1cccc2cc(Cn3nc(-c4ccc(O)c(F)c4)c4c(N)ncnc43)n(-c3ccccc3F)c(=O)c12 [Compound 29]	> 6.00

Dear colleague, could you send me pEC50 for each of the items below? Thanks.
1. Cc1cccc2cc(Cn3nc(Br)c4c(N)ncnc43)n(-c3ccccc3F)c(=O)c12 [Compound 35]
2. Cc1cccnc1-n1c(Cn2nc(-c3ccc(F)c(O)c3)c3c(N)ncnc32)cc2cccc(C)c2c1=O [Compound 68]

Result string:
> 6.00
> 7.00

Below are 3 molecules. Give each one its pEC50.
1. Cc1csc2nc(Cn3nc(-c4cc(O)cc(F)c4)c4c(N)ncnc43)n(-c3ccccc3Cl)c(=O)c12 [Compound 296]
2. Cc1ccccc1-n1c(Cn2nc(Br)c3c(N)ncnc32)nc2nccc(C)c2c1=O [Compound 204]
3. Cc1cccc2cc(Cn3nc(C#CCO)c4c(N)ncnc43)n(-c3ccccc3F)c(=O)c12 [Compound 8]

Result string:
1: > 7.00; 2: > 6.00; 3: > 6.00

Kindly give each listed record's pEC50.
1. CC(C)n1c(Cn2nc(-c3cccc(O)c3)c3c(N)ncnc32)cc2cccc(F)c2c1=O [Compound 133]
2. Cc1cccc2cc(Cn3nc(-c4ccc(Cl)c(O)c4)c4c(N)ncnc43)n(-c3ccccc3F)c(=O)c12 [Compound 24]
3. CC(C)n1c(Cn2nc(-c3cc(O)cc(F)c3)c3c(N)ncnc32)cc2cccc(Cl)c2c1=O [Compound 138]
4. Cc1cccc2cc(Cn3nc(C#C[C@@H](C)O)c4c(N)ncnc43)n(-c3ccccc3Cl)c(=O)c12 [Compound 98]
5. Cc1ccccc1-n1c(Cn2nc(-c3ccc(F)c(O)c3)c3c(N)ncnc32)cc2cccc(C)c2c1=O [Compound 12]
6. Cc1cccc2cc(Cn3nc(-c4cccc(O)c4)c4c(N)ncnc43)n(-c3ccccc3C(C)C)c(=O)c12 [Compound 82]

Result string:
["> 6.00", "> 6.00", "> 7.00", "> 6.00", "> 7.00", "> 7.00"]

// pEC50 value for Cc1cccc2cc(Cn3nc(-c4cc(O)cc(F)c4)c4c(N)ncnc43)n(-c3ccccc3Cl)c(=O)c12 [Compound 97] : > 7.00

====

Record type: IC50 measurement. Applies to: PI3K δ (Homo sapiens)

Check out these entries, answers already filled in.
Cc1cc2c(=O)n(-c3ccccc3C)c(Cn3nc(-c4cccc(O)c4)c4c(N)ncnc43)nc2s1 [Compound 294]	< 10000 nM
Cc1csc2nc(Cn3nc(-c4ccc(F)c(O)c4)c4c(N)ncnc43)n(-c3ccccc3F)c(=O)c12 [Compound 259]	< 100 nM
Cc1csc2nc(Cn3nc(-c4cc(O)cc(F)c4)c4c(N)ncnc43)n(-c3ccccc3F)c(=O)c12 [Compound 258]	< 100 nM
Cc1csc2nc(Cn3nc(-c4cccc(O)c4)c4c(N)ncnc43)n(-c3ccccc3C(F)(F)F)c(=O)c12 [Compound 281]	< 100 nM
Cc1ccnc2nc(Cn3nc(C#CC4CC4)c4c(N)ncnc43)n(-c3ccccc3Cl)c(=O)c12 [Compound 208]	< 10000 nM

Consider now this further compound.
Reported IC50 for Cc1ccccc1-n1c(Cn2nc(Br)c3c(N)ncnc32)nc2scc(C)c2c1=O [Compound 250] was < 100 nM

====

# Test system: Balb/c splenic B cells
# ASSAY OVERVIEW: B cell activation and proliferation assay (Alamar Blue)
# Type: cell-based
# EXPERIMENTAL SETUP: Mus musculus, read-out: B cell proliferation EC50
Answer each item with its documented EC50.

Cc1csc2nc(Cn3nc(-c4ccc(O)cc4)c4c(N)ncnc43)n(-c3ccccc3F)c(=O)c12 [Compound 263]	< 10 µM
Cc1cccc2cc(Cn3nc(C#C[C@@H](C)O)c4c(N)ncnc43)n(-c3ccccc3C(C)C)c(=O)c12 [Compound 83]	< 0.1 µM
Cc1cccc2cc(Cn3nc(I)c4c(N)ncnc43)n(-c3ccccc3F)c(=O)c12 [Compound 2]	< 10 µM

Could you now consider this next molecule?
In plain terms, COc1ccc(-c2nn(Cc3cc4cccc(C)c4c(=O)n3-c3ccccc3F)c3ncnc(N)c23)cc1OC [Compound 47] has a documented EC50 of < 1 µM

====

# Tested on: Balb/c splenic B cells
# ASSAY OVERVIEW: B cell activation and proliferation assay (Alamar Blue)
# Type: cell-based
# EXPERIMENTAL SETUP: Mus musculus, read-out: B cell proliferation EC50
MEASURED METRIC: EC50

Previously resolved entries follow.
Cc1cccc2cc(Cn3nc(-c4cc(O)cc(F)c4)c4c(N)ncnc43)n(C3CCCC3)c(=O)c12	< 100 nM
Cc1ccccc1-n1c(Cn2nc(-c3ccc(O)cc3)c3c(N)ncnc32)cc2cccc(C)c2c1=O	< 1000 nM
Cc1cccnc1-n1c(Cn2nc(I)c3c(N)ncnc32)cc2cccc(C)c2c1=O	< 1000 nM

Take each entry in turn and give its EC50.
1. Cc1cccnc1-n1c(Cn2nc(-c3cc(O)cc(F)c3)c3c(N)ncnc32)nc2scc(C)c2c1=O
2. Cc1csc2nc(Cn3nc(-c4cccc(O)c4)c4c(N)ncnc43)n(-c3ccccc3C(F)(F)F)c(=O)c12
3. Cc1ccccc1-n1c(Cn2nc(C#C[C@@H](C)O)c3c(N)ncnc32)cc2ccccc2c1=O

Result string:
< 100 nM
< 100 nM
< 1000 nM

Hi there! I need EC50 for each item below, if you can.
1. Cc1cccc2cc(Cn3nc(I)c4c(N)ncnc43)n(-c3ccccc3O)c(=O)c12
2. Cc1csc2nc(Cn3nc(Br)c4c(N)ncnc43)n(-c3ccccc3Cl)c(=O)c12
3. Cc1cccc2cc(Cn3nc(-c4cccc(F)c4)c4c(N)ncnc43)n(-c3ccccc3F)c(=O)c12

Result string:
["< 1000 nM", "< 100 nM", "< 10000 nM"]

Could I get EC50 for every one of these entries?
1. Cc1ccccc1-n1c(Cn2nc(-c3ccc(O)c(F)c3)c3c(N)ncnc32)cc2nccc(C)c2c1=O
2. CCc1ccccc1-n1c(Cn2nc(Br)c3c(N)ncnc32)nc2scc(C)c2c1=O
3. COc1ccccc1-n1c(Cn2nc(-c3cccc(O)c3)c3c(N)ncnc32)cc2cccc(C)c2c1=O

Result string:
< 1000 nM
< 100 nM
< 100 nM

Items follow; give EC50 for each.
1. Cc1cccc2cc(Cn3nc(C#CC4CC4)c4c(N)ncnc43)n(-c3ccccc3F)c(=O)c12
2. Cc1ccccc1-n1c(Cn2nc(-c3cccc(Cl)c3)c3c(N)ncnc32)cc2cccc(C)c2c1=O
3. Cc1ccccc1-n1c(Cn2nc(-c3ccc(Cl)c(O)c3)c3c(N)ncnc32)cc2cccc(C)c2c1=O
4. Cc1ccccc1-n1c(Cn2nc(I)c3c(N)ncnc32)nc2nccc(C)c2c1=O
5. Cc1ccccc1-n1c(Cn2nc(I)c3c(N)ncnc32)cc2ccccc2c1=O
6. Cc1cccc2cc(Cn3nc(-c4cccc(O)c4)c4c(N)ncnc43)n(-c3ccccc3F)c(=O)c12

Result string:
< 1000 nM
< 10000 nM
< 100 nM
< 100 nM
< 1000 nM
< 1000 nM

Could you report EC50 for every entry in the following list?
1. Cc1ccccc1-n1c(Cn2nc(C#CC3CC3)c3c(N)ncnc32)nc2nccc(C)c2c1=O
2. Cc1ccccc1-n1c(Cn2nc(-c3cc(O)cc(F)c3)c3c(N)nccc32)cc2cccc(C)c2c1=O
3. Cc1ccccc1-n1c(Cn2nc(-c3cc(O)cc(F)c3)c3c(N)ncnc32)nc2nccc(C)c2c1=O
4. Cc1csc2nc(Cn3nc(I)c4c(N)ncnc43)n(-c3ccccc3C(C)C)c(=O)c12

Result string:
1: < 10000 nM; 2: < 100 nM; 3: < 10000 nM; 4: < 100 nM

// for each molecule in input: emit EC50
1. CCn1c(Cn2nc(-c3cccc(O)c3)c3c(N)ncnc32)cc2cccc(C)c2c1=O
2. Cc1cccc2cc(Cn3nc(C#C[C@@H](C)O)c4c(N)ncnc43)n(C(C)C)c(=O)c12
3. CC(=O)Nc1nc2ccc(-c3nn(Cc4cc5cccc(C)c5c(=O)n4C4CC4)c4ncnc(N)c34)cc2s1
4. Cc1ccccc1-n1c(Cn2nc(-c3cccc(F)c3)c3c(N)ncnc32)cc2cccc(C)c2c1=O
5. Cc1csc2nc(Cn3nc(C#C[C@@H](C)O)c4c(N)ncnc43)n(-c3ccccc3F)c(=O)c12
6. Cc1cccc2cc(Cn3nc(C#C[C@@H](C)O)c4c(N)ncnc43)n(C3CC3)c(=O)c12
7. Cc1cccc2cc(Cn3nc(I)c4c(N)ncnc43)n(C)c(=O)c12
8. Cc1ccccc1-n1c(Cn2nc(C#CCO)c3c(N)ncnc32)cc2cccc(C)c2c1=O

Result string:
< 100 nM
< 1000 nM
< 100 nM
< 1000 nM
< 1000 nM
< 1000 nM
< 1000 nM
< 1000 nM

Looking up Cc1cccc2cc(Cn3nc(-c4cccc(O)c4)c4c(N)ncnc43)n(-c3ccccc3)c(=O)c12 , I see its EC50 listed as < 100 nM
